Record form. Attribute: TGI. Fill in for each entry.
Test system: MALME-3M melanoma
test: NCI tumour cell line growth inhibition, 48 h

molecule	TGI
O=C(N=Nc1c(O)[nH]c2c(Cl)cc(Cl)cc12)C(=O)Nc1cccc(C(F)(F)F)c1	> 100 µM
C=C(CN1CCc2ccccc2C1)c1ccc(C(=O)Nc2cccc(N)c2)cc1	34.1 µM
CC(=O)C1=C(C)N2C(=NC3=C(CCc4ccccc43)C2c2ccc(Cl)cc2)S1 (stereo not given)	> 100 µM
CS(=O)c1cc(=O)c2ccccc2s1 (stereo not given)	4.53 µM
C(#C[C@@]12CCC[C@@H]1NCO2)c1ccc2c(c1)OCO2	> 100 µM

Hey, can you go through the list below and give me TGI for every item?
1. COc1cc(OC)cc(Oc2nc3ccc(C(F)(F)F)cc3nc2-c2ccccc2)c1
2. COc1cc(-c2nn(-c3cccc(NC(=O)NCCNC(=O)c4ccccc4)c3)cc2-c2ccncc2)ccc1Cl
3. CCN(CC)CCCC(C)Nc1ccnc2cc(OC)ccc12 (stereo not given)
4. CCCN1CCCC(c2ccc(Nc3nc(Nc4cc(F)ccc4C(N)=O)c4cc[nH]c4n3)c(OC)c2)C1 (stereo not given)
5. C[C@@H](NC(=O)Nc1cccc(C(=O)Nc2cc(C(C)(C)C)ccc2C(=O)O)n1)c1ccccc1
6. CN(C)CCCn1c2c(c3ccc(N4CCNCC4)cc3c1=O)C(=O)c1ccccc1-2
7. C=CC(C)(C)[C@@]12CC3C(=O)N[C@@H](Cc4ccccc4)C(=O)N3[C@@H]1N(C(C)=O)c1ccccc12 (stereo not given in full)
8. CCc1cccc(CC)c1NC1=CC(=O)C(=O)c2ccccc21

OUTPUT:
> 100 µM
6.11 µM
50.2 µM
6.34 µM
> 100 µM
3.46 µM
> 100 µM
31.9 µM

Hey, can you go through the list below and give me TGI for every item?
1. Cc1n[nH]c(C)c1-c1c(C)n[nH]c1C
2. COc1cc(F)c(F)c(F)c1C(=O)c1cnc(NC2CCN(S(C)(=O)=O)CC2)nc1N

OUTPUT:
1: 4.05 µM; 2: 11.3 µM
